propertyMeasured: melting point

Task item: Dear colleague, I am looking for the recorded melting point of the following compound: "Cc1nc(C)c(Cl)c(NCc2nccc(SCc3ccco3)c2C)n1"
Reply: 159 to 160 °C

Task item: Again, but for "Cc1nc(C)c(Cl)c(NCc2nccc(CNCCO)c2Cl)n1"
Reply: 162 to 165 °C

Task item: Now consider "Cc1nc(C)c(Cl)c(NCc2nccc(OCCOCCSCCn3c([N+](=O)[O-])cnc3C)c2C)n1" and answer again.
Reply: 102 to 105 °C

Task item: Would you mind doing "Cc1c(SCc2ccco2)ccnc1CNc1ncncc1Cl" as well?
Reply: 169 to 170 °C
